Target: CDK7/cyclin H (Homo sapiens)
Sequence (P50613 whole entry, species assumed): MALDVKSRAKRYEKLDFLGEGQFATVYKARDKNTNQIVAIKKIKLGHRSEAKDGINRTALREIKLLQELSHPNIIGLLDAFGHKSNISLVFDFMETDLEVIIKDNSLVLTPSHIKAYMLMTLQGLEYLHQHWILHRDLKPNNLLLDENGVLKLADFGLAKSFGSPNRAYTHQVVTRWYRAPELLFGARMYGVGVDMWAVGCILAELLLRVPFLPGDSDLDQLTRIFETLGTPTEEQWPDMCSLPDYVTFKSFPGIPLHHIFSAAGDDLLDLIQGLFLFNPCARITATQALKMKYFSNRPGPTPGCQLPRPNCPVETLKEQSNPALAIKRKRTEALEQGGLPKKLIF
Sequence (P51946 whole entry partner, species assumed): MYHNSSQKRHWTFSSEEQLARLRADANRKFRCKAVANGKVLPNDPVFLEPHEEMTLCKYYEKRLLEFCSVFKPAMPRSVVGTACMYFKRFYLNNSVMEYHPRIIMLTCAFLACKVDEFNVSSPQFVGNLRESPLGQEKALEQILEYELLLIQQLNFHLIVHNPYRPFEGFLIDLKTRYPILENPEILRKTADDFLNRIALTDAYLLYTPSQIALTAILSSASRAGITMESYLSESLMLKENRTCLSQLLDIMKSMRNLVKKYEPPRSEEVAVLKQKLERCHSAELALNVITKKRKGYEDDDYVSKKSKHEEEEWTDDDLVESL
Experiment: CDK7/cyclin H kinase inhibition
Conditions: Table 2
assay_readout: IC50 (µM)

CC[C@@H](Nc1nc(NCc2ccccc2)c2ncn(C(C)C)c2n1)C(O)C(C)C (mixture of isomers) : 4.4

(1) CCC(O)[C@@H](CC)Nc1nc(NCc2ccccc2)c2ncn(C(C)C)c2n1 (mixture of isomers)
(2) CC[C@H](Nc1nc(NCc2ccccc2)c2ncn(C(C)C)c2n1)C(O)C(C)(C)C (mixture of isomers)
[ask] Sort 1 and 2 by IC50 descending and give the first. Lab log: write the label of the selected item as the result.
[reply] 2
(2: 4.3 µM, 1: 1.2 µM)

###

Molecular target: mouse ERK-2 (Mus musculus, UniProt P63085)
Sequence (P63085 whole entry): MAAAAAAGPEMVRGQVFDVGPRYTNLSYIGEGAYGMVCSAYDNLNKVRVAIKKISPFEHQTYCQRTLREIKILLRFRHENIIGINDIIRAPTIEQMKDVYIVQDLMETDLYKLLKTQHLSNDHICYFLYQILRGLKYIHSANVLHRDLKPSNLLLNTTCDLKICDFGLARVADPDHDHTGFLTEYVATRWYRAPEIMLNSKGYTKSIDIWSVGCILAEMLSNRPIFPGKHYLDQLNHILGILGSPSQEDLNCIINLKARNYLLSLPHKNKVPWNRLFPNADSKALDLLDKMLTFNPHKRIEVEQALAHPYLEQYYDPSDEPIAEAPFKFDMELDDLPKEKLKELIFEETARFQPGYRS
assay_readout: pIC50
In plain terms, pIC50 is the concentration in mol/L turned into minus its base-10 logarithm.

[ask] # query: pIC50 of entry CC[C@H](CO)Nc1nc(NCc2ccccn2)c2ncn(C(C)C)c2n1
[reply] 5.02
